These measurements were taken from ChEMBL document CHEMBL1137232.

- Tested System: Sodium-dependent dopamine transporter (Rattus norvegicus, UniProt P23977)
- Sequence (P23977 whole entry): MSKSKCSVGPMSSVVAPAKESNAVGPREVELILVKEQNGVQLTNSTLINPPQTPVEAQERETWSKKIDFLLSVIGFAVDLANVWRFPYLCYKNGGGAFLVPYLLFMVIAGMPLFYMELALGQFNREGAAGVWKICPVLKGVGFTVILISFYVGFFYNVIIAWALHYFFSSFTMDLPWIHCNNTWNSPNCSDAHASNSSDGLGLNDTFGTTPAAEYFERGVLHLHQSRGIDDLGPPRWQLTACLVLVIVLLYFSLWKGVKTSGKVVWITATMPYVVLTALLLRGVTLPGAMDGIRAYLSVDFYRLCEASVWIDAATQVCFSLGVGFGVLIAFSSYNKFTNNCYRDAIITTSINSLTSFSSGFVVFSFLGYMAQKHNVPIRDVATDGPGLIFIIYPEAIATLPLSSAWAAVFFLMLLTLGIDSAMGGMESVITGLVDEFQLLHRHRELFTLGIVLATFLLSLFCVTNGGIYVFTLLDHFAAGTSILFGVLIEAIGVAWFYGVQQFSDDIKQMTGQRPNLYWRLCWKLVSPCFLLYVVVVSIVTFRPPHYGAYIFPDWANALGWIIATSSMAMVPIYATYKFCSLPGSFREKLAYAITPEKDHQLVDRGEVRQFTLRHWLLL
- Test Method Notes: Inhibition of high affinity uptake by the dopamine transporter from rat synaptosomal nerve endings by using [3H]DA as radioligand
pKi: −log10 of the molar value.
Response key: rule met means pKi >= 7; rule not met means pKi < 7.

Exercise: Could you verify whether the entry CN1CCC(c2ccc(Cl)cc2)C(C[S+]([O-])CC(N)=O)C1 (stereo unspecified) shows pKi of no less than 7?
Key: rule not met

Exercise: Could you verify whether the entry COCC[S+]([O-])CC1CN(C)CCC1c1ccc(Cl)cc1 (stereo unspecified) shows pKi of no less than 7?
Key: rule met

Exercise: Could you verify whether the entry CNC(=O)CSCC1CN(C)CCC1c1ccc(Cl)cc1 (stereo unspecified) shows pKi of no less than 7?
Key: rule met

Exercise: Could you verify whether the entry CN1CCC(c2ccc(Cl)cc2)C(C[S+]([O-])CCOC(=O)c2ccccc2)C1 (stereo unspecified) shows pKi of no less than 7?
Key: rule met

Exercise: Could you verify whether the entry CN1CCC(c2ccc(Cl)cc2)C(C[S+]([O-])CC(=O)NO)C1 (stereo unspecified) shows pKi of no less than 7?
Key: rule met

Exercise: Could you verify whether the entry CN1CCC(c2ccc(Cl)cc2)C(CSCCO)C1 (stereo unspecified) shows pKi of no less than 7?
Key: rule met

Exercise: Could you verify whether the entry CN1CCC(c2ccc(Cl)cc2)C(C[S+]([O-])CC(=O)N(C)C)C1 (stereo unspecified) shows pKi of no less than 7?
Key: rule not met

Exercise: Could you verify whether the entry CN1CCC(c2ccc(Cl)cc2)C(CI)C1 (stereo unspecified) shows pKi of no less than 7?
Key: rule not met

Exercise: Could you verify whether the entry Cc1noc(C[S+]([O-])CC2CN(C)CCC2c2ccc(Cl)cc2)n1 (stereo unspecified) shows pKi of no less than 7?
Key: rule not met

Exercise: Could you verify whether the entry CC(=O)OCCSCC1CN(C)CCC1c1ccc(Cl)cc1 (stereo unspecified) shows pKi of no less than 7?
Key: rule met

* * *

- Tested System: Norepinephrine transporter (Rattus norvegicus, UniProt Q9WTR4)
- Sequence (Q9WTR4 whole entry): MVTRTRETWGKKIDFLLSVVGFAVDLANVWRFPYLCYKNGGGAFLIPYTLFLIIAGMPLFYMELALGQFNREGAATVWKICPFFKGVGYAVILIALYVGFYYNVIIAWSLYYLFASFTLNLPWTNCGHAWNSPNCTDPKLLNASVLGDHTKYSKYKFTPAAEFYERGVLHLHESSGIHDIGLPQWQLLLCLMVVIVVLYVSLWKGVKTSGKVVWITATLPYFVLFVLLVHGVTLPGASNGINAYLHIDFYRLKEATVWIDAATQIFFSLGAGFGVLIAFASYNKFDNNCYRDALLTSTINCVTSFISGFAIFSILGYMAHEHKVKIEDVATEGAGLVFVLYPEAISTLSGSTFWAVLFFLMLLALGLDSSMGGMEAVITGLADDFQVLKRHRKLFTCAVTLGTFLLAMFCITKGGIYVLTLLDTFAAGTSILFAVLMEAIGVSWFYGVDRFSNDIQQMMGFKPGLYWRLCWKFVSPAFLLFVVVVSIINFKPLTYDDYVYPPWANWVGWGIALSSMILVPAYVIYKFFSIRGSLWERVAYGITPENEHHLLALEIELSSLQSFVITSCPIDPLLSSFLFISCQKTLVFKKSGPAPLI
- Test Method Notes: Inhibition of high affinity uptake by the norepinephrine transporter from rat synaptosomal nerve endings by using [3H]NE as radioligand
For each record, write down the corresponding pKi.
The read-out pKi is expressed as -log10 of concentration in moles per litre.

GET /value?item= CC(C)NC(=O)CSCC1CN(C)CCC1c1ccc(Cl)cc1 (configuration not stated) &field=pKi returns 9.10

GET /value?item= CN1CCC(c2ccc(Cl)cc2)C(C[S+]([O-])CCO)C1 (configuration not stated) &field=pKi returns 7.38

GET /value?item= CN1CCC(c2ccc(Cl)cc2)C(CSCC(N)=O)C1 (configuration not stated) &field=pKi returns 7.41

GET /value?item= CN1CCC(c2ccc(Cl)cc2)C(CSCCO)C1 (configuration not stated) &field=pKi returns 9.03

GET /value?item= CN1CCC(c2ccc(Cl)cc2)C(C[S+]([O-])CC(=O)NO)C1 (configuration not stated) &field=pKi returns 7.92

GET /value?item= NC(=O)C[S+]([O-])CC1CNCCC1c1ccc(Cl)cc1 (configuration not stated) &field=pKi returns 7.51

GET /value?item= COC(=O)C[S+]([O-])CC1CN(C)CCC1c1ccc(Cl)cc1 (configuration not stated) &field=pKi returns 7.28
